// provenance: patent US20220048967A1

- Target or system: T1, human gastric inhibitory peptide receptor (GIPR) (human, UniProt P48546 22-466)
- T1 sequence (looked up): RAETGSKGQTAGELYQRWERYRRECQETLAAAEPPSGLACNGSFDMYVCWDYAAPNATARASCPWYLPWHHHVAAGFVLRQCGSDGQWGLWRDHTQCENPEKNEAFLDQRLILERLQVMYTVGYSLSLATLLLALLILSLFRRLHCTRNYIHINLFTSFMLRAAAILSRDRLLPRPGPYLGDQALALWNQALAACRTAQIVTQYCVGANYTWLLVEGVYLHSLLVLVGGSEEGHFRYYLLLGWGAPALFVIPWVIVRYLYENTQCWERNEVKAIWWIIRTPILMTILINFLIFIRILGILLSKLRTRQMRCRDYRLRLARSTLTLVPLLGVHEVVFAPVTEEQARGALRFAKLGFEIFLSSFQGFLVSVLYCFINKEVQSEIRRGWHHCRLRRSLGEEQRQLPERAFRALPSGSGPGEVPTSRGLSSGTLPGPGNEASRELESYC
- Assay: cell-based or functional assay
Output 1 for records whose hGIPR cAMP Rel EC50 is lower than 0.04 nM, 0 for records at or above 0.04 nM.

Strictly below 0.04 nM: is that where hGIPR cAMP Rel EC50 of YXEGTFTSDYSIXLDEKAQXAFIEYLIEGGPSSGAPPPS (Aib2, αMeL13, (2-[2-(2-Amino-ethoxy)-ethoxy]-acetyl)2-(γ-Glu)-CO-(CH2)16-CO2H on K17, Aib20, C-terminal NH2) [Example 323] sits?
1

Please determine if FXEGTFTSDYSIXLDKKAQXAFIEYLIEGGPSSGAPPPS (Aib2, αMeL13, (2-[2-(2-Amino-ethoxy)-ethoxy]-acetyl)2-(γ-Glu)-CO-(CH2)18-CO2H on K17, Aib20, C-terminal NH2) [Example 327] is below 0.04 nM in terms of hGIPR cAMP Rel EC50.
0

Is hGIPR cAMP Rel EC50 strictly under 0.04 nM for the entry YXEGTXTSDYSILLDKKAQXEFIEYLIEGGPSSG (Aib2, αMeF6, (2-[2-(2-Amino-ethoxy)-ethoxy]-acetyl)2-(γ-Glu)-CO-(CH2)16-CO2H on K17, Aib20, C-terminal NH2) [Example 308] ?
1

Hello, is hGIPR cAMP Rel EC50 of the following binder strictly smaller than 0.04 nM? YXEGTFTSDYSILLDKKAQEAFIEYLIEGGPSSGAPPPS (Aib2, (2-[2-(2-Amino-ethoxy)-ethoxy]-acetyl)2-(γ-Glu)-CO-(CH2)18-CO2H on K17, C-terminal NH2) [Example 261]
0

Determine whether this binder shows hGIPR cAMP Rel EC50 lower than 0.04 nM (ties excluded): YXEGTFTSDYSILLDKKAQRAFIEYLIEGGPSSGAPPPS (Aib2, (2-[2-(2-Amino-ethoxy)-ethoxy]-acetyl)2-(γ-Glu)-CO-(CH2)18-CO2H on K17, C-terminal NH2) [Example 257]
0

Problem: For the binder YXEGTFTSDYSIXLDKKAQXEFIEYLIAGGPSSGAPPPS (Aib2, αMeL13, (2-[2-(2-Amino-ethoxy)-ethoxy]-acetyl)2-(γ-Glu)-CO-(CH2)18-CO2H on K17, Aib20, C-terminal NH2) [Example 289] , is hGIPR cAMP Rel EC50 under 0.04 nM?
1

Report whether reported hGIPR cAMP Rel EC50 is lower than 0.04 nM (strictly) for YXEGTFTSDYSIXLDKKAQXEFIEYLIEGGPSSGAPPPS (not fully specified; Aib2, αMeL13, (2-[2-(2-Amino-ethoxy)-ethoxy]-acetyl)2-(γ-Glu)-CO-(CH2)18-CO2H on K17, Aib20, C-terminal NH2) [Example 333]
0

Is the reported hGIPR cAMP Rel EC50 for YXEGTXTSDYSILLDEKAQXAFIEYLIEGGPSSG (Aib2, αMeF(2F)6, (2-[2-(2-Amino-ethoxy)-ethoxy]-acetyl)2-(γ-Glu)-CO-(CH2)16-CO2H on K17, Aib20, C-terminal NH2) [Example 311] strictly below 0.04 nM?
1

Please let me know if XXEGTFTSDYSIXLDXKAQXEFIXYLIAGGPSSGAPPPS (D-Tyr1, Aib2, αMeL13, Orn16, (2-[2-(2-Amino-ethoxy)-ethoxy]-acetyl)2-(γ-Glu)-CO-(CH2)18-CO2H on K17, Aib20, D-Glu24, C-terminal NH2) [Example 354] shows hGIPR cAMP Rel EC50 below 0.04 nM.
0

State whether 0.04 nM exceeds hGIPR cAMP Rel EC50 recorded for FXEGTFTSDYSIXLDKKAQXAFIEYLIAGGPSSGAPPPS (not fully specified; Aib2, αMeL13, (2-[2-(2-Amino-ethoxy)-ethoxy]-acetyl)2-(γ-Glu)-CO-(CH2)18-CO2H on K17, Aib20, C-terminal NH2) [Example 337] .
0

Decide: hGIPR cAMP Rel EC50 of XXEGTFTSDYSIXLDEKAQXAFIEYLIAGGPSSGAPPPS (not fully specified; D-Tyr1, Aib2, αMeL13, (2-[2-(2-Amino-ethoxy)-ethoxy]-acetyl)2-(γ-Glu)-CO-(CH2)18-CO2H on K17, Aib20, C-terminal NH2) [Example 341] strictly below 0.04 nM?
0

Determine if YXEGTFTSDYSIXLDEKAQXAFIEYLIAGGPSSGAPPPS (Aib2, αMeL13, (2-[2-(2-Amino-ethoxy)-ethoxy]-acetyl)2-(γ-Glu)-CO-(CH2)18-CO2H on K17, Aib20, C-terminal NH2) [Example 332] shows hGIPR cAMP Rel EC50 strictly lower than 0.04 nM.
0
